experimental.target: autotaxin (ATX) (Homo sapiens)
Construct: concentrated conditioned serum-free medium (CCM) from MDA MB-435 cells as the source of ATX; endogenous in cells; host or cells: MDA-MB-435 cells (serum-free conditioned medium, concentrated ~10 fold)
assay.explanation: Autotaxin inactivation analysis: ATX-mediated hydrolysis of FS-3 (fluorescence), concentrated conditioned medium from MDA MB-435 cells as ATX source
Type: biochemical
applied.conditions: 30 uM, time 1 hour; FS-3 substrate
Below, each of the compounds is paired with its reported Fluorescence (% Response) value.
assay.endpoint: Fluorescence (% Response)

[
  {
    "structure.smiles.string": "CCCCCCCCCCCCCCOP(=O)(O)Oc1ccc(CF)cc1",
    "value": "31.3%"
  },
  {
    "structure.smiles.string": "CCCCCCCCCCCCOP(=O)(O)Oc1ccc(CF)cc1",
    "value": "63.0%"
  },
  {
    "structure.smiles.string": "CCCCCCCCCCCCCCCCOP(=O)(O)Oc1ccccc1CF",
    "value": "−16.8%"
  },
  {
    "structure.smiles.string": "CCCCCCCCCCCCCCOP(=O)(O)Oc1ccc(C(F)F)cc1",
    "value": "14.3%"
  }
]

----------
experimental.target: autotaxin (ATX) (Homo sapiens)
Construct: concentrated conditioned serum-free medium (CCM) from MDA MB-435 cells as the source of ATX; endogenous in cells; host or cells: MDA-MB-435 cells (serum-free conditioned medium, concentrated ~10 fold)
assay.explanation: Autotaxin inactivation analysis: ATX-mediated hydrolysis of FS-3 (fluorescence), concentrated conditioned medium from MDA MB-435 cells as ATX source
Type: biochemical
applied.conditions: 3 uM, time 3 hours; FS-3 substrate
Protocol: The test protocol was as follows: […] ATX inhibition was assayed using FS-3 (Echelon Biosciences, Inc., Salt Lake City, Utah, USA) as a substrate and ˜10 times concentrated conditioned serum-free medium (CCM) from MDA MB-435 cells as the source of ATX. […] Fluorescence was read at 5 minute intervals by a Synergy2 system (BioTek, Winooski, Vt.) with excitation and emission wavelengths of 485 and 538 nm, respectively. […]
Below, each of the compounds is paired with its reported Fluorescence (% Response) value.

[
  {
    "structure.smiles.string": "CCCCCCCCCCCCCCCCCCOP(=O)(O)Oc1ccc(CF)cc1",
    "experimental.target": "autotaxin (ATX) (Homo sapiens)",
    "Fluorescence (% Response)": "28.1%"
  },
  {
    "structure.smiles.string": "CCCCCCCCCCCCCCOP(=O)(O)Oc1ccc(C(F)F)cc1",
    "experimental.target": "autotaxin (ATX) (Homo sapiens)",
    "Fluorescence (% Response)": "42.7%"
  },
  {
    "structure.smiles.string": "CCCCCCCCCCCCCCCCOP(=O)(O)Oc1ccc(CF)cc1",
    "experimental.target": "autotaxin (ATX) (Homo sapiens)",
    "Fluorescence (% Response)": "33.3%"
  },
  {
    "structure.smiles.string": "CCCCCCCCCCCCCCOP(=O)(O)Oc1ccc(CF)cc1",
    "experimental.target": "autotaxin (ATX) (Homo sapiens)",
    "Fluorescence (% Response)": "45.7%"
  },
  {
    "structure.smiles.string": "CCCCCCCCCCCCOP(=O)(O)Oc1ccc(CF)cc1",
    "experimental.target": "autotaxin (ATX) (Homo sapiens)",
    "Fluorescence (% Response)": "52.2%"
  },
  {
    "structure.smiles.string": "CCCCCCCCCCCCCCCCOP(=O)(O)Oc1ccccc1CF",
    "experimental.target": "autotaxin (ATX) (Homo sapiens)",
    "Fluorescence (% Response)": "10.6%"
  },
  {
    "structure.smiles.string": "CCCCCCCCCCCCCCCCOP(=O)(O)Oc1ccc(C(F)F)cc1",
    "experimental.target": "autotaxin (ATX) (Homo sapiens)",
    "Fluorescence (% Response)": "44.8%"
  },
  {
    "structure.smiles.string": "CCCCCCCCCCCCOP(=O)(O)Oc1ccc(C(F)F)cc1",
    "experimental.target": "autotaxin (ATX) (Homo sapiens)",
    "Fluorescence (% Response)": "48.3%"
  }
]
